# target or test system: MBP-FoxP3dN (Mus musculus, UniProt Q99JB6 188-423)
# Sequence: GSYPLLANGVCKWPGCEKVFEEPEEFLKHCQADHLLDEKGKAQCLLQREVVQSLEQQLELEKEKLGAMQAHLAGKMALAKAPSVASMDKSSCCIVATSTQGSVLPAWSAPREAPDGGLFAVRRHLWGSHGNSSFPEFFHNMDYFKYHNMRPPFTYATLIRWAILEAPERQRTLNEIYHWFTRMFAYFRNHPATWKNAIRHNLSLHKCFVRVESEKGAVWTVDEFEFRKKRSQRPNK
# method description: PD-seq (MBP pull-down with sequencing); 20 mM Tris-HCl pH 7.5, 100 mM NaCl, 1.5 mM MgCl2, 0.4 uM protein, 0.1 uM dsDNA library, 30 min, room temperature, amylose pull-down; high values mean tight binding
# condition: protein: recombinant; tags: His6-MBP; chain copies: 2; dsDNA, one strand shown
Over roughly 16,000 sequences, “rpm ratio (pull-down/input)” has its median near 0.5; the highest 2% begin near 5.5. The sample holds the highest values, similar sequences and a random draw of the others, so the mix is not that of the screen.
readout name: binding signal

For orientation, consider the following solved cases.
- GATGATTGTTCTCCCAGCTGATGAATTCTTTGTTTCGAGTAAACAAATTTTCCTAATCTTTCTGTTCAAGCGCCATCTAC: 0.575 RPM ratio (pull-down/input)
- GATGATTGTTCTCCCAGCTGATGAATTCGTTTTTTCGAGTAAACAAATTTTCCTAATCTTTCTGTTCAAGCGCCATCTAC: 2.58 RPM ratio (pull-down/input)
- GATGATTGTTCTCCCAGCTGATGAATTTGAATTTTCGAGTAAACAAATTTTCCTAATCTTTCTGTTCAAGCGCCATCTAC: 0.538 RPM ratio (pull-down/input)

With those in mind, consider the next sequence.
Task: GET /values?readout=binding signal&item= `GATGATTGTTCTCCCAGCTGATGAATTCGTTTGTTCGAGTAAACAAATTTTCCTAATCTTTCTGTTCAAGCGCCATCTAC`
Result: 5.83 RPM ratio (pull-down/input)

----------
Item-by-item account of binding signal
# target or test system: MBP-FoxP3dN (Mus musculus, UniProt Q99JB6 188-423)
# Sequence: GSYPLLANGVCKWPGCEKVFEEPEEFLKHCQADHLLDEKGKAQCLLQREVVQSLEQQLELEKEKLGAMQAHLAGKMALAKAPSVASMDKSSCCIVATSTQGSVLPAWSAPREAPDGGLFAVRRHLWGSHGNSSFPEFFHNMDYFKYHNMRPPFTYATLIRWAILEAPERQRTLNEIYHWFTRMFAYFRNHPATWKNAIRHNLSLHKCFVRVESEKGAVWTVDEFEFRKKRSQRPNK
# method description: PD-seq (MBP pull-down with sequencing); 20 mM Tris-HCl pH 7.5, 100 mM NaCl, 1.5 mM MgCl2, 0.4 uM protein, 0.1 uM dsDNA library, 30 min, room temperature, amylose pull-down; high values mean tight binding
# condition: protein: recombinant; tags: His6-MBP; chain copies: 2; dsDNA, one strand shown
Whole data set: some 16,000 sequences, median “rpm ratio (pull-down/input)” near 0.5, cut for the highest 2% near 5.5. The entries come from a sample that favours the highest values as a whole.

For orientation, consider the following solved cases.
• GATGATTGTTCTCCCAGCTGATGAATTTATGCAATCGAGTAAACAAATTTTCCTAATCTTTCTGTTCAAGCGCCATCTAC = 4.25 RPM ratio (pull-down/input)
• GATGATTGTTCTCCCAGCTGATGAATTATGCATCTCGAGTAAACAAATTTTCCTAATCTTTCTGTTCAAGCGCCATCTAC = 7.47 RPM ratio (pull-down/input)
• GATGATTGTTCTCCCAGCTGATGAATTCTACAACTCGAGTAAACAAATTTTCCTAATCTTTCTGTTCAAGCGCCATCTAC = 0.303 RPM ratio (pull-down/input)
• GATGATTGTTCTCCCAGCTGATGAATTATGCAGCTCGAGTAAACAAATTTTCCTAATCTTTCTGTTCAAGCGCCATCTAC = 3.11 RPM ratio (pull-down/input)
• GATGATTGTTCTCCCAGCTGATGAATTTGCAAACTCGAGTAAACAAATTTTCCTAATCTTTCTGTTCAAGCGCCATCTAC = 0.673 RPM ratio (pull-down/input)

With those in mind, consider the next sequence.
Task: GET /values?readout=binding signal&item= `GATGATTGTTCTCCCAGCTGATGAATTGTTCAACTCGAGTAAACAAATTTTCCTAATCTTTCTGTTCAAGCGCCATCTAC`
Result: 0.485 RPM ratio (pull-down/input)

----------
# target or test system: MBP-FoxP3dN (Mus musculus, UniProt Q99JB6 188-423)
# Sequence: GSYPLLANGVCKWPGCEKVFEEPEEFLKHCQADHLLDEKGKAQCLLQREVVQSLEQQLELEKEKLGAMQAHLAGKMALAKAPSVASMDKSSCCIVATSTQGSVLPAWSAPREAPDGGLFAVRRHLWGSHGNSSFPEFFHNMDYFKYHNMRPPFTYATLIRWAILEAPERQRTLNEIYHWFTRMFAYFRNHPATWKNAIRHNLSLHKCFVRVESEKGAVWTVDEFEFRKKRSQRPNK
# method description: PD-seq (MBP pull-down with sequencing); 20 mM Tris-HCl pH 7.5, 100 mM NaCl, 1.5 mM MgCl2, 0.4 uM protein, 0.1 uM dsDNA library, 30 min, room temperature, amylose pull-down; high values mean tight binding
# condition: protein: recombinant; tags: His6-MBP; chain copies: 2; dsDNA, one strand shown
The full ranking holds about 16,000 sequences; the median of “rpm ratio (pull-down/input)” is about 0.5, and the highest 2% start at about 5.5. The list comes from a sample in which the highest values are over-represented; it also holds close analogues and randomly drawn sequences.
readout name: binding signal

For orientation, consider the following solved cases.
* GATGATTGTTCTCCCAGCTGATGAATTACCACGCTCGAGTAAACAAATTTTCCTAATCTTTCTGTTCAAGCGCCATCTAC | 0.466 RPM ratio (pull-down/input)
* GATGATTGTTCTCCCAGCTGATGAATTTGTTGCATCGAGTAAACAAATTTTCCTAATCTTTCTGTTCAAGCGCCATCTAC | 7.07 RPM ratio (pull-down/input)
* GATGATTGTTCTCCCAGCTGATGAATTTGCATGATCGAGTAAACAAATTTTCCTAATCTTTCTGTTCAAGCGCCATCTAC | 1.63 RPM ratio (pull-down/input)
* GATGATTGTTCTCCCAGCTGATGAATTTTTGTCATCGAGTAAACAAATTTTCCTAATCTTTCTGTTCAAGCGCCATCTAC | 0.666 RPM ratio (pull-down/input)
* GATGATTGTTCTCCCAGCTGATGAATTCCTGAAATCGAGTAAACAAATTTTCCTAATCTTTCTGTTCAAGCGCCATCTAC | 0.237 RPM ratio (pull-down/input)

With those in mind, consider the next sequence.
Task: What is its binding signal for MBP-FoxP3dN (Mus musculus, UniProt Q99JB6 188-423)? Entry: `GATGATTGTTCTCCCAGCTGATGAATTTCATCTGTCGAGTAAACAAATTTTCCTAATCTTTCTGTTCAAGCGCCATCTAC`
Result: 0.411 RPM ratio (pull-down/input)

----------
Item-by-item account of binding signal
# target or test system: MBP-FoxP3dN (Mus musculus, UniProt Q99JB6 188-423)
# Sequence: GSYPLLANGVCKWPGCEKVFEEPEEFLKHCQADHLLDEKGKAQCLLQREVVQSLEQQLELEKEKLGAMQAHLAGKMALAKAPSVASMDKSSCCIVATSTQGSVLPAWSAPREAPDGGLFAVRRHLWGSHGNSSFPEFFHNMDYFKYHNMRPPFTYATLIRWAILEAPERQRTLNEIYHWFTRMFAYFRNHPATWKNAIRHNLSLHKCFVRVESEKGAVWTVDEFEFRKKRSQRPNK
# method description: PD-seq (MBP pull-down with sequencing); 20 mM Tris-HCl pH 7.5, 100 mM NaCl, 1.5 mM MgCl2, 0.4 uM protein, 0.1 uM dsDNA library, 30 min, room temperature, amylose pull-down; high values mean tight binding
# condition: protein: recombinant; tags: His6-MBP; chain copies: 2; dsDNA, one strand shown
In all, about 16,000 sequences were measured (“rpm ratio (pull-down/input)”: median about 0.5, highest 2% from about 5.5 on). Only a selection was taken, and the highest values are over-represented in it overall.

For orientation, consider the following solved cases.
- GATGATTGTTCTCCCAGCTGATGAATTATTCGCCTCGAGTAAACAAATTTTCCTAATCTTTCTGTTCAAGCGCCATCTAC: 0.568 RPM ratio (pull-down/input)
- GATGATTGTTCTCCCAGCTGATGAATTCCAGTAATCGAGTAAACAAATTTTCCTAATCTTTCTGTTCAAGCGCCATCTAC: 0.477 RPM ratio (pull-down/input)
- GATGATTGTTCTCCCAGCTGATGAATTTTGTTGTTCGAGTAAACAAATTTTCCTAATCTTTCTGTTCAAGCGCCATCTAC: 8.13 RPM ratio (pull-down/input)
- GATGATTGTTCTCCCAGCTGATGAATTGAGACACTCGAGTAAACAAATTTTCCTAATCTTTCTGTTCAAGCGCCATCTAC: 1.41 RPM ratio (pull-down/input)

With those in mind, consider the next sequence.
Task: GET /values?readout=binding signal&item= `GATGATTGTTCTCCCAGCTGATGAATTTTGAGCCTCGAGTAAACAAATTTTCCTAATCTTTCTGTTCAAGCGCCATCTAC`
Result: 0.568 RPM ratio (pull-down/input)
